biological target: α-glucosidase; assay: enzyme inhibition assay with p-nitrophenyl-D-glycopyranoside substrate
reported_property: pIC50
Please note pIC50 is a logarithmic value: minus log10 of concentration in mol/L. Answer with that number alone.

Suppose we examine the compound COc1cccc(O)c1-c1cc(=O)c2c(O)c(OC)c(OC)c(OC)c2o1 ; what pIC50 value has been reported? 7.02

# input for lookup
Reported pIC50 for COc1cc(O)c2c(=O)cc(-c3ccccc3O)oc2c1OC : what is it? 6.99
